METHOD DESCRIPTION: Human HepG2 cell viability assay in 384 well format
Assay type: toxicity, cell-based
Parameters: dose 125 nL, time 70.5 hour; concentration not given beside the values
STATED CONDITIONS: HepG2 cells, read-out: Inhibition
List of cytotoxicity at 70.5 h values.
Return type: number; implicit unit %.

Please review the entries below; each comes with its answer.
O=C(Cc1ccc2c(c1)CCO2)N1CCN(c2nccs2)CC1 : -2.11
Cc1cccc(N2CCN(C(=O)NC(C)c3nncn3C)CC2)c1 (stereo unspecified) : 20.1
CSCCC(C)NC(=O)N1CCSC(C)(C)C1 (stereo unspecified) : 22.4
Cc1occc1C(=O)NC1CCN(C(=O)Nc2cccnc2)CC1 : -5.69
CC1(C2CCN(CC(N)=O)CC2)CN(Cc2ccccc2)C(=O)CO1 (stereo unspecified) : -6.63

API: the following record is the query input.
Sample `Cc1noc(C(C)C)c1C(=O)NCCCOC(C)C` — what was its cytotoxicity at 70.5 h?
-4.85

====

METHOD DESCRIPTION: Human HepG2 cell viability assay in 384 well format
Assay type: toxicity, cell-based
Set-up: dose 125 nL, time 70.5 hour; concentration not given beside the values
STATED CONDITIONS: HepG2 cells, read-out: Inhibition
Reported cytotoxicity at 70.5 h values for the following molecules.
Reply with just the number (in %).

In the examples that follow, each entry is paired with its recorded cytotoxicity at 70.5 h.
CCCc1ccc(C(=O)N2CCc3c(nc(N(C)C)[nH]c3=O)C2)cc1 : -5.16
Cc1c(Br)c(C(F)(F)F)nn1C(C)C(=O)O (stereo not drawn) : -11.2
CC1CCc2nc(O)c(C(=O)NCCCN3CCN(C)CC3)cc2C1 (stereo not drawn) : -7.22

What value of measured cytotoxicity at 70.5 h is listed for CSc1ccc(C(C(=O)O)N2CCC(C(=O)N3CCCC3)CC2)cc1 (stereo not drawn) ?
-4.74

Would you mind telling me what cytotoxicity at 70.5 h value was observed for CN1CC(=O)N(c2ccccc2)CC12CCN(C(=O)CC1CC1)C2 (stereo not drawn) ?
8.17

Param item = NC(=O)COc1ccc(C2NC(=O)CN2Cc2ccc(Br)cc2)cc1 (stereo not drawn) ; retrieve measured cytotoxicity at 70.5 h.
-14.8

What value of cytotoxicity at 70.5 h has been recorded for this entry: `COCCN1C[C@@H]2CN(Cc3cccc(F)c3)CCC[C@]2(C(=O)O)C1`
20.7

Can you share its cytotoxicity at 70.5 h? I mean this molecule: `NC(=O)c1ccc(N2CCCCC2)c(NC(=O)c2ccc(F)cc2F)c1`
3.5

Quick check: cytotoxicity at 70.5 h of `CC(C)n1ccnc1CN1CCCN(C(=O)c2ncccc2O)CC1` ?
0.148

Which cytotoxicity at 70.5 h value is on record for Cc1ccc(C(=O)N2CCC3(CCN(Cc4ccccn4)C3=O)C2)cn1 (stereo not drawn) ?
-5.23

Fill in the blank: the reported cytotoxicity at 70.5 h of `CCO[C@@H]1CC[C@H]2[C@H]1OCCN2Cc1ccoc1` is ____.
-1.39

I would be grateful if you could share the reported cytotoxicity at 70.5 h for `c1nc(N2CCOCC2)sc1-c1cncn1CCCN1CCCCC1` .
-4.2

If you can, please state the reported cytotoxicity at 70.5 h value of `CN1CCC(n2nc(Cc3cccs3)nc2-c2ccncc2)CC1` .
2.89

Data request, read-out cytotoxicity at 70.5 h, for Cc1cnc(C(=O)N2CCCC(c3c(C)c(=O)nc4n3CCC4)C2)cn1 (stereo not drawn)
-7.55

Value lookup for cytotoxicity at 70.5 h; key = O=C(NCC(O)CN1CCc2ccccc2C1)Nc1cccnc1 (stereo not drawn)
-17.4

# query: cytotoxicity at 70.5 h of entry Cc1cc(CCC(=O)N2CCCC2)nc(C2CCCN2)n1 (stereo not drawn)
-1.61

Request the reported cytotoxicity at 70.5 h associated with `COc1ccccc1NC(=O)c1cc2c([nH]c1=O)CCCC2=O`
-11.1

Give the measured cytotoxicity at 70.5 h of `CN(C)C(=O)N1CCC2(CC1)CN(Cc1ccccn1)C(=O)CO2` .
24.4

====

Attribute: cytotoxicity at 70.5 h
METHOD DESCRIPTION: Human HepG2 cell viability assay in 384 well format
Type: toxicity, cell-based
Parameters: dose 125 nL, time 70.5 hour; concentration not given beside the values
STATED CONDITIONS: HepG2 cells, read-out: Inhibition
Enter your answer as a number in %; do not include the unit.

Reference set (2 entries):
c1nc(N2CCCC2)ncc1CN1CCCC(CN2CCCCC2)C1 (configuration not stated) : 24.4
CCCc1noc(C(C)S(=O)(=O)Cc2nc(C3CC3)no2)n1 (configuration not stated) : -2.49

Recorded cytotoxicity at 70.5 h for CC(NC(=O)c1ccsc1)c1ccc2c(c1)NC(=O)CO2 (configuration not stated) , please?
-3.38

Param item = `Cn1ccnc1-c1noc(NCc2ccc(Br)cc2)n1` ; retrieve measured cytotoxicity at 70.5 h.
-7.73

Consider the compound shown here: CCCN(C)CC1CCN(c2ccc(Br)c(C)n2)C1 (configuration not stated) What is its recorded cytotoxicity at 70.5 h?
4.09

Given the entry `CCN(Cc1ccc(F)c(F)c1)Cc1nc2c(cnn2C)c(=O)[nH]1` , report its measured cytotoxicity at 70.5 h.
-4.48

Quick check: cytotoxicity at 70.5 h of `Cc1nc2ncc3c(=O)n(C)ccc3n2n1` ?
-8.63

====

Form field: cytotoxicity at 70.5 h (one value per entry).
METHOD DESCRIPTION: Human HepG2 cell viability assay in 384 well format
Format: toxicity, cell-based
Set-up: dose 125 nL, time 70.5 hour; concentration not given beside the values
STATED CONDITIONS: HepG2 cells, read-out: Inhibition
Give the number; % is assumed, so skip it.

Below, each entry is followed by its recorded cytotoxicity at 70.5 h result.
Cc1cnc(CNS(=O)(=O)CCC2CCCO2)o1 (stereo not drawn) : -12.3
Cn1nc(C2CCN(C(=O)CCN3CCOCC3)CC2)c2cccnc21 : -2.43
COc1ccccc1N1CCN(CC(=O)NC(C)c2ccco2)CC1 (stereo not drawn) : -5.63
Cc1ocnc1C(=O)N1CCN(Cc2ccccc2)[C@@H]2CS(=O)(=O)C[C@@H]21 : -9.03
O=c1cc(Cn2ccnc2)nc2n1CCCN(Cc1ccco1)C2 : -5.53
O=C(CS(=O)(=O)c1ccc(Cl)cc1)NC1CCCc2ccccc21 (stereo not drawn) : 1.89

Would you kindly share the measured cytotoxicity at 70.5 h for CCOC(=O)CC(c1ccc(OC)c(OC)c1)c1c(O)n[nH]c1C (stereo not drawn) ?
-15.2

So what does the record say about cytotoxicity at 70.5 h for CC(Cn1cccn1)NC(=O)N1CCCN(Cc2cccs2)CC1 (stereo not drawn) ?
-5.76

Give its cytotoxicity at 70.5 h value. Item: `CC(C)NC(=O)N(Cc1cc(O)nc2ccccc12)C(C)C`
-7.39

Item under review: `Cc1nc(C)c(CC(=O)Nc2nnc(C)s2)c(=O)[nH]1` . Reported cytotoxicity at 70.5 h?
0.383

Quick one: cytotoxicity at 70.5 h of `CS(=O)(=O)NCC1CCN(C(=O)Oc2ccccc2)CC1` ?
-3.79

Can you look up the measured cytotoxicity at 70.5 h of Cc1ccc(CN2C(=O)CC[C@]23CC[C@@H](NC2CCOC2)CC3)cc1 (stereo partly drawn) for me?
-1.41

Could you share which cytotoxicity at 70.5 h value was measured for `N#CCSCC(=O)NCC1CCCCC1` ?
-7.13

Entry `CCCNC(=O)c1cc(C(C)C)nc(N2CCCCC2)n1` : reported cytotoxicity at 70.5 h = ?
3.03

Endpoint output: cytotoxicity at 70.5 h of c1cc(CNCC2OCCc3cn(CC4CCOCC4)nc32)ccn1 (stereo not drawn) . Value?
9.22

====

Listing of entries alongside the reported cytotoxicity at 70.5 h.
METHOD DESCRIPTION: Human HepG2 cell viability assay in 384 well format
Assay type: toxicity, cell-based
Design: dose 125 nL, time 70.5 hour; concentration not given beside the values
STATED CONDITIONS: HepG2 cells, read-out: Inhibition
Unit % implied. Number only.

As a guide, the following entries are already answered.
Cc1ncsc1CCC(=O)N(C)Cc1nc2ccccc2n1C : -1.06
O=C(Cc1n[nH]c2ccccc12)N1CCC(Nc2cccnn2)CC1 : -2.23
Cc1noc([C@@H]2C[C@H](NC(=O)NC3CCCCC3)CN2C)n1 : -7.54
O=C1O[C@@H]2CN(c3ccccn3)C[C@@H]2N1CCCc1ccc(F)cc1 : -14.3
CC(=O)Nc1ccc(C(=O)NCCCn2cccc2)cc1 : -14.1

Param item = `CN1C[C@H]2CC[C@@H]1CN(C(=O)COCc1nc3cc(F)ccc3[nH]1)C2` ; retrieve measured cytotoxicity at 70.5 h.
27.3

What value of cytotoxicity at 70.5 h has been recorded for this entry: `CC(C)(C)OC(=O)N1CSC[C@@H]1C(=O)NCc1cccc(C#N)c1`
-0.236

Need cytotoxicity at 70.5 h, item `Cc1ccc(NC2CCN(C(=O)c3ccc4c(c3)CCC4)CC2)nn1`
-0.715

Which cytotoxicity at 70.5 h value is on record for `COc1cccc(-c2nc(C)c(C(=O)N[C@@H](CCSC)C(=O)O)s2)c1` ?
-21.7

Form field: reported cytotoxicity at 70.5 h of CN(C)C1CCN(c2cc(-c3ccccc3)nc3ccnn23)C1 (stereo unspecified)
5.02

What does the data say about its cytotoxicity at 70.5 h? Entry: `O=C(CCCc1cn[nH]c1)N1C[C@@H](CN2CCOCC2)[C@@H](CO)C1`
17.7

So what does the record say about cytotoxicity at 70.5 h for `Cc1nc([C@@H]2C[C@H]3CN(Cc4scnc4C)C[C@H]3O2)no1` ?
5.82

Look up cytotoxicity at 70.5 h for this compound: `Cc1nc(N2C[C@@H](CN3CCCCC3)[C@@H](CO)C2)c2sccc2n1`
8.31

// query cytotoxicity at 70.5 h value for entry CC1c2ncc(Cn3cccn3)n2CCN1Cc1ccc(F)cc1 (stereo unspecified)
-2.85

What value of measured cytotoxicity at 70.5 h is listed for `COCc1nc(CNC2CCC3(CCNCC3)CC2)no1` ?
-8.94

Any idea what its cytotoxicity at 70.5 h is? The compound is `O=C(CN1CC(c2nc(-c3ccco3)no2)C1)NCc1ccc(F)cc1`
0.546

// lookup cytotoxicity at 70.5 h for `Cc1nc(CNC(=O)CCCc2cccs2)no1`
-5.14

# input compound: `CNC(=O)[C@H]1C[C@@H]2CN(S(=O)(=O)c3ccc(C)cc3)C[C@@H]2N1C` ; wanted: its cytotoxicity at 70.5 h
-1.06

Query (compound): CCCC(=O)N1CCN(CC(O)COCC)CC1 (stereo unspecified) ; field requested: cytotoxicity at 70.5 h
1.27

// lookup cytotoxicity at 70.5 h for CC(CNC(=O)c1cc(C2CC2)nc2c1cnn2C)Cn1cccn1 (stereo unspecified)
-6.63

Request the reported cytotoxicity at 70.5 h associated with `CCNc1cc2c(nn1)CCN(C(=O)c1ccc(CNC(C)=O)o1)C2`
-5.9

// query cytotoxicity at 70.5 h value for entry `COCCNC(=O)c1sccc1N(C)S(=O)(=O)c1ccc(Cl)cc1`
-22.2

Requested field: cytotoxicity at 70.5 h. Item: `CCc1nnc(CN(C)c2nccc(CCC(F)(F)F)n2)o1`
-9.32

I'd like to know its cytotoxicity at 70.5 h. The compound in question is `CCOc1cc(C(=O)N2CCOCC2)cc2occc12`
22.3

# get_value(readout='cytotoxicity at 70.5 h', item= O=C(c1ccc2c(c1)OCCO2)N1CCCC(n2ccnc2)C1 (stereo unspecified) )
-4.86

# input compound: CN(CC(=O)N(CCC#N)c1ccccc1)C1CCc2ccccc21 (stereo unspecified) ; wanted: its cytotoxicity at 70.5 h
5.13

Request the reported cytotoxicity at 70.5 h associated with CCN1CC(C(=O)N2CCC(Oc3ccccc3Cl)CC2)CC1=O (stereo unspecified)
4.13

Given the compound CCc1noc(C(C)N2CCC(C(=O)Nc3cnn(CC)c3)CC2)n1 (stereo unspecified) , what is its reported cytotoxicity at 70.5 h?
41.4

Which cytotoxicity at 70.5 h reading was recorded for the compound COCC1CN(c2ccc(C)nn2)Cc2cnn(CC3CCOCC3)c21 (stereo unspecified) ?
-6.71
